Experiment: qHTS of pediatric cancer cell lines to identify multiple opportunities for drug repurposing: Confirmatory screen for MG 63 (6-TG R) cells (AID 1347119); also: nearly all actives have a fitted effect of over 55% in size
Conditions: MG-63 (6-TG resistant) osteosarcoma viability; series mostly up to 45.9 µM
Records with an inconclusive call do not appear. Activity calls are given as the source filed them. Calls follow the shape of the dose curve; as a rule, active = well fitted cell-killing curve with a large enough effect; inconclusive = small, poorly fitted or top-dose-only effect, or effect the other way; inactive = no such curve, though single readings can be large or run the other way.
In this exercise, the only acceptable responses are active, inactive

| compound | label value |
| --- | --- |
| Cc1cc(OCCOCC[N+](C)(C)Cc2ccccc2)ccc1C(C)(C)CC(C)(C)C | active |
| COc1c(C)c2c(c(O)c1C/C=C(\C)CCC(=O)OCCN1CCOCC1)C(=O)OC2 | inactive |
| CC[C@@]1(O)C(=O)OCc2c1cc1n(c2=O)Cc2c-1nc1ccccc1c2/C=N/OC(C)(C)C | active |
| C[C@H]1C[C@H]2[C@@H]3CCC4=CC(=O)C=C[C@]4(C)[C@H]3C(=O)C[C@]2(C)[C@@]1(O)C(=O)CO | active |
| CCCC(=O)O[C@]1(C(=O)COC(=O)CC)CC[C@H]2[C@@H]3CCC4=CC(=O)CC[C@]4(C)[C@H]3[C@@H](O)C[C@@]21C | inactive |

Pending compound:
Request: Just curious, what result did Nc1ccc2cc3ccc(N)cc3nc2c1 get here?
Result: active
